Test: Microdose study of 14C-AlphaHGA in healthy volunteers, plasma pharmacokinetics (AMS)
Assay type: in vivo, human
Run conditions: plasma, Route iv, Mean
Counter-ions that a name gives are not always drawn.
Value type: Cmax

Tell me the measured Cmax of NC(=O)C(N)O (stereo not drawn) [AlphaHGA, α-Hydroxy-glycinamide hydrochloride] , please.
0.0544 nM

====

System: HIV-2(ROD)
Test: microbe, parasite or virus in culture
Run conditions: read-out: EC50 (MT-4) HIV-2 (ROD); Table 20
Where a name gives a salt, the structure may show the parent alone.
Value type: EC50

{"Compound": "NCC(N)=O [G-NH2, glycinamide]", "EC50": "> 500 µM"}

Here's the next entry for you.
Item NC(=O)C(N)O (stereo not drawn) [AlphaHGA, α-Hydroxy-glycinamide hydrochloride] has what recorded EC50?
≥ 500 µM
